Target: HPK1 (Homo sapiens, UniProt Q92918)
Construct: A HiBiT tag was introduced by CRISPR on the N terminus of HPK1 in Jurkat cells; host or cells: Jurkat (ATCC TIB-152), monoclonal CRISPR HiBiT knock-in line
Sequence (Q92918 whole entry): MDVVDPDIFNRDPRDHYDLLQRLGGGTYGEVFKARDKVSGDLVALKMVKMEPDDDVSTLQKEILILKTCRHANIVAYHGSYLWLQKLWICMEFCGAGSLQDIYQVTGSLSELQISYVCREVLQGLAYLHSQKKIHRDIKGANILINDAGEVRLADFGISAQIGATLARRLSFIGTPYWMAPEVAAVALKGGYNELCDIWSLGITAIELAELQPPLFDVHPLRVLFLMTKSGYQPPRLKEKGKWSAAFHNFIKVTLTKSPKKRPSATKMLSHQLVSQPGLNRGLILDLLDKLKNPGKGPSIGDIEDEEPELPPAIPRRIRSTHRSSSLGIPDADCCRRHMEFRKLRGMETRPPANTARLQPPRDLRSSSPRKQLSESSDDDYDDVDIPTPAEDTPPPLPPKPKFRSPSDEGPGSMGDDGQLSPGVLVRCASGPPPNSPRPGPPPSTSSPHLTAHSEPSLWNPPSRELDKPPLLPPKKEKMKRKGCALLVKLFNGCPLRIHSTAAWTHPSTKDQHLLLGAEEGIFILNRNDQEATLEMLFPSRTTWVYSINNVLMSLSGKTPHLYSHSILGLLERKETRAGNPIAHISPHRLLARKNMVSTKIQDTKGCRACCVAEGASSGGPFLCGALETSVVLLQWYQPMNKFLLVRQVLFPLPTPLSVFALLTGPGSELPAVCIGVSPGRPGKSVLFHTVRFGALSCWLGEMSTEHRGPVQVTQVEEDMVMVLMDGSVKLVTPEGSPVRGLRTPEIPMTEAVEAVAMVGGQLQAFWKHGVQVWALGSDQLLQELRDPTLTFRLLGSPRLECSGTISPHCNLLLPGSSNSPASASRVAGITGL
Experiment: HPK1 Cellular HiBiT Degradation Assay
Type: cell-based
Details: HiBiT-tagged HPK1 Jurkat cells, 24 hours, 10 uM to 0.1 nM; Dmax = 100 minus lowest % HPK1 remaining vs DMSO vehicle
Reported Property: Dmax

Known results for molecules:
Molecule	Dmax
Cc1cc(F)c(Nc2nc(-c3ccc4c(c3)N([C@H]3C[C@@H](N5CCCCC5)C3)C(=O)C43CCN(C(=O)[C@H]4CC[C@@H](C(=O)N5CCN(c6ccc7c(c6)C(=O)N(C6CCC(=O)NC6=O)C7=O)CC5)CC4)CC3)cc3ncn(C(C)C)c23)cc1C(=O)NC(C)C (stereo partly shown) [Example 79]	45 to 65%
Cc1cc(F)c(Nc2nc(-c3ccc4c(c3)N([C@H]3C[C@@H](N5CCCCC5)C3)C(=O)C43CCN(C(=O)CCCCCCCCCOc4cc(-c5scnc5C)ccc4CNC(=O)[C@@H]4C[C@@H](O)CN4C(=O)[C@@H](NC(=O)C4(F)CC4)C(C)(C)C)CC3)cc3ncn(C(C)C)c23)cc1C(=O)NC(C)C [Example 6]	< 45%
Cc1cc(F)c(Nc2nc(-c3ccc4c(c3)N([C@H]3C[C@@H](N5CCCCC5)C3)C(=O)C43CCN(C(=O)CCN4CCC(CCCCC(=O)N[C@H](C(=O)N5C[C@H](O)C[C@H]5C(=O)N[C@@H](C)c5ccc(-c6scnc6C)cc5)C(C)(C)C)CC4)CC3)cc3ncn(C(C)C)c23)cc1C(=O)NC(C)C [Example 20]	< 45%

// next entry
Request: // lookup Dmax for Cc1cc(F)c(Nc2nc(-c3ccc4c(c3)N([C@H]3C[C@@H](N5CCCCC5)C3)C(=O)C43CCN(C(=O)[C@@H]4CCN(C(=O)[C@H]5CC[C@H](Nc6cccc7c6C(=O)N(C6CCC(=O)NC6=O)C7=O)CC5)C4)CC3)cc3ncn(C(C)C)c23)cc1C(=O)NC(C)C (stereo partly shown) [Example 52]
Response: 45 to 65%

---

Target: HPK1 (Homo sapiens, UniProt Q92918)
Construct: A HiBiT tag was introduced by CRISPR on the N terminus of HPK1 in Jurkat cells; host or cells: Jurkat (ATCC TIB-152), monoclonal CRISPR HiBiT knock-in line
Assay: HPK1 Cellular HiBiT Degradation Assay
Type: cell-based
Conditions: HiBiT-tagged HPK1 Jurkat cells, 24 hours, 10 uM to 0.1 nM; Dmax = 100 minus lowest % HPK1 remaining vs DMSO vehicle
Experimental: HiBiT HPK1 Jurkat cell lines were used to evaluate the total protein levels of HPK1 in a robust human cellular high throughput format. […] These decreases were not a result of cytotoxicity measured by a parallel viability assessment (CTG). […] A HiBiT tag was introduced by CRISPR on the N terminus of HPK1 in Jurkat cells (ATCC® TIB-152) to allow quantitation of HPK1 protein levels in a monoclonal human cell line. […] Percent HPK1 remaining per sample was calculated as follows: […]
Reported Property: Dmax

Molecule	Reported Property	Value Observed
Cc1cc(F)c(Nc2nc(-c3ccc4c(c3)N([C@H]3C[C@@H](N5CCCCC5)C3)C(=O)C43CCN(C(=O)C4CN(C(=O)C5CCN(c6ccc7c(c6)C(=O)N(C6CCC(=O)NC6=O)C7=O)CC5)C4)CC3)cc3ncn(C(C)C)c23)cc1C(=O)NC(C)C (some centres unmarked)	Dmax	< 45%

Request: Can you look up Dmax on HPK1 (Homo sapiens, UniProt Q92918) for Cc1cc(F)c(Nc2nc(-c3ccc4c(c3)N([C@H]3C[C@@H](N5CCCCC5)C3)C(=O)C43CCN(C(=O)C4CN(CC5CCN(c6cccc7c6C(=O)N(C6CCC(=O)NC6=O)C7=O)C5)C4)CC3)cc3ncn(C(C)C)c23)cc1C(=O)NC(C)C (some centres unmarked) ?
Response: 45 to 65%

Request: Then what about the molecule Cc1cc(F)c(Nc2nc(-c3ccc4c(c3)N([C@H]3C[C@@H](N5CCCCC5)C3)C(=O)C43CCN(C(=O)[C@H]4CC[C@H](C(=O)N5CCC(Nc6cccc7c6C(=O)N(C6CCC(=O)NC6=O)C7=O)CC5)CC4)CC3)cc3ncn(C(C)C)c23)cc1C(=O)NC(C)C (some centres unmarked) ?
Response: 45 to 65%

Request: Then what about the molecule Cc1cc(F)c(Nc2nc(-c3ccc4c(c3)N([C@H]3C[C@@H](N5CCCCC5)C3)C(=O)C43CCN(C(=O)c4ccc(C(=O)N5CCC(Cc6cccc7c6C(=O)N(C6CCC(=O)NC6=O)C7=O)CC5)cc4)CC3)cc3ncn(C(C)C)c23)cc1C(=O)NC(C)C (some centres unmarked) ?
Response: 45 to 65%

Request: Then what about the molecule Cc1cc(F)c(Nc2nc(-c3ccc4c(c3)N([C@H]3C[C@@H](N5CCCCC5)C3)C(=O)C43CCN(C(=O)c4ccc(N(C)C5CCN(c6ccc7c(c6)C(=O)N(C6CCC(=O)NC6=O)C7=O)CC5)cc4)CC3)cc3ncn(C(C)C)c23)cc1C(=O)NC(C)C (some centres unmarked) ?
Response: 45 to 65%

Request: Then what about the molecule Cc1cc(F)c(Nc2nc(-c3ccc4c(c3)N([C@H]3C[C@@H](N5CCCCC5)C3)C(=O)C43CCN(C(=O)[C@@H]4CCN(C(=O)C[C@H]5CC[C@H](Nc6cccc7c6C(=O)N(C6CCC(=O)NC6=O)C7=O)CC5)C4)CC3)cc3ncn(C(C)C)c23)cc1C(=O)NC(C)C (some centres unmarked) ?
Response: 45 to 65%

Request: Then what about the molecule Cc1cc(F)c(Nc2nc(-c3ccc4c(c3)N([C@H]3C[C@@H](N5CCCCC5)C3)C(=O)C43CCN(C(=O)c4cnc(N5CCN(c6cccc7c6C(=O)N(C6CCC(=O)NC6=O)C7=O)CC5)cn4)CC3)cc3ncn(C(C)C)c23)cc1C(=O)NC(C)C (some centres unmarked) ?
Response: 45 to 65%

Request: Then what about the molecule Cc1cc(F)c(Nc2nc(-c3ccc4c(c3)N(C3CC(N5CCCCC5)C3)C(=O)C43CCN(C(=O)[C@@H]4CCN(C(=O)[C@H]5CC[C@H](Oc6cccc7c6C(=O)N(C6CCC(=O)NC6=O)C7=O)CC5)C4)CC3)cc3ncn(C(C)C)c23)cc1C(=O)NC(C)C (some centres unmarked) ?
Response: < 45%

---

Biological target: HPK1 (Homo sapiens)
Construct: A HiBiT tag was introduced by CRISPR on the N terminus of HPK1 in Jurkat cells; host or cells: Jurkat (ATCC TIB-152), monoclonal CRISPR HiBiT knock-in line
Assay: HPK1 Cellular HiBiT Degradation Assay
Type: cell-based
Details: HiBiT-tagged HPK1 Jurkat cells, 24 hours, 10 uM to 0.1 nM; Dmax = 100 minus lowest % HPK1 remaining vs DMSO vehicle
Below, each entry is listed with its recorded Dmax.

Known results for compounds:
Compound	Dmax
Cc1cc(F)c(Nc2nc(-c3ccc4c(c3)N([C@H]3C[C@@H](N5CCCCC5)C3)C(=O)C43CCN(C(=O)c4ccc(C(=O)N5C6CCC5CN(c5ccc7c(c5)C(=O)N(C5CCC(=O)NC5=O)C7=O)C6)cc4)CC3)cc3ncn(C(C)C)c23)cc1C(=O)NC(C)C (stereo partly shown)	45 to 65%
Cc1cc(F)c(Nc2nc(-c3ccc4c(c3)N([C@H]3C[C@@H](N5CCCCC5)C3)C(=O)C43CCN(C(=O)C4CCN(C(=O)CC5CCN(c6cccc7c6C(=O)N(C6CCC(=O)NC6=O)C7=O)CC5)CC4)CC3)cc3ncn(C(C)C)c23)cc1C(=O)NC(C)C (stereo partly shown)	< 45%
Cc1cc(F)c(Nc2nc(-c3ccc4c(c3)N([C@H]3C[C@@H](N5CCCCC5)C3)C(=O)C43CCN(C(=O)C[C@H]4CC[C@H](Nc5cccc6c5C(=O)N(C5CCC(=O)NC5=O)C6=O)CC4)CC3)cc3ncn(C(C)C)c23)cc1C(=O)NC(C)C (stereo partly shown)	45 to 65%

// next entry
Request: // lookup Dmax for Cc1cc(F)c(Nc2nc(-c3ccc4c(c3)N([C@H]3C[C@@H](N5CCCCC5)C3)C(=O)C43CCN(C(=O)c4ccc(C(=O)N5CCN(c6ccc7c(c6)C(=O)N(C6CCC(=O)NC6=O)C7=O)CC5)cc4Cl)CC3)cc3ncn(C(C)C)c23)cc1C(=O)NC(C)C (stereo partly shown)
Response: > 65%

---

Below, each entry is listed with its recorded Dmax.
Molecular target: HPK1 (Homo sapiens, UniProt Q92918)
Construct: A HiBiT tag was introduced by CRISPR on the N terminus of HPK1 in Jurkat cells; host or cells: Jurkat (ATCC TIB-152), monoclonal CRISPR HiBiT knock-in line
Test: HPK1 Cellular HiBiT Degradation Assay
Type: cell-based
Details: HiBiT-tagged HPK1 Jurkat cells, 24 hours, 10 uM to 0.1 nM; Dmax = 100 minus lowest % HPK1 remaining vs DMSO vehicle

Known results for compounds:
Compound	Reported Property	Value Observed
Cc1cc(F)c(Nc2nc(-c3ccc4c(c3)N([C@H]3C[C@@H](N5CCCCC5)C3)C(=O)C43CCN(C(=O)C4CCN(C(=O)C[C@@H]5CCCN(c6cccc7c6C(=O)N(C6CCC(=O)NC6=O)C7=O)C5)C4)CC3)cc3ncn(C(C)C)c23)cc1C(=O)NC(C)C (stereo partly shown)	Dmax	< 45%
Cc1cc(F)c(Nc2nc(-c3ccc4c(c3)N([C@H]3C[C@@H](N5CCCCC5)C3)C(=O)C43CCN(C(=O)CC4CCCN(CC5CCN(c6ccc7c(c6)C(=O)N(C6CCC(=O)NC6=O)C7=O)C5)C4)CC3)cc3ncn(C(C)C)c23)cc1C(=O)NC(C)C (stereo partly shown)	Dmax	45 to 65%
Cc1cc(F)c(Nc2nc(-c3ccc4c(c3)N([C@H]3C[C@@H](N5CCCCC5)C3)C(=O)C43CCN(C(=O)c4ccc(C(=O)N5CCN(c6ccc7c(c6)C(=O)N(C6CCC(=O)NC6=O)C7=O)CC5)cc4)CC3)cc3ncn(C(C)C)c23)cc1C(=O)NC(C)C (stereo partly shown)	Dmax	45 to 65%

// next entry
Request: // lookup Dmax for Cc1cc(F)c(Nc2nc(-c3ccc4c(c3)N([C@H]3C[C@@H](N5CCCCC5)C3)C(=O)C43CCN(C(=O)[C@@H]4CCN(C(=O)c5cnc(N6CCN(c7cccc8c7C(=O)N(C7CCC(=O)NC7=O)C8=O)CC6)cn5)C4)CC3)cc3ncn(C(C)C)c23)cc1C(=O)NC(C)C (stereo partly shown)
Response: 45 to 65%

Where these numbers come from: patent US11739101B2
